Test system: K24384-001-R-PDC complex spheroids, viability
Assay: Anticancer human tumor K24384-001-R-PDC patient-derived pancreatic adenocarcinoma cell line growth inhibition [GQUAD]
Settings: second compound 0.1 µM; first compound 0.316 µM; stronger effect = lower value
RECORDED METRIC: viability, T/C (%)
Provide only the numeric value, understood in %.

# MOLECULE, RECORDED METRIC, UNIT SPEC, REPORTED VALUE
rows = [
    ("COc1ncnc(C2CC2)c1-c1ncc2cnn(Cc3ccc(-c4nc(C(F)(F)F)cn4C(C)C)cc3)c2n1 + CN(C)c1ccc(Nc2c3ccc(NC(=O)CCN4CCCC4)cc3nc3cc(NC(=O)CCN4CCCC4)ccc23)cc1", "viability, T/C", "%", 100),
    ("CC(=O)O[C@H]1C(=O)[C@@]2(C)[C@H]([C@H](OC(=O)c3ccccc3)[C@]3(O)C[C@H](OC(=O)[C@H](O)[C@@H](NC(=O)c4ccccc4)c4ccccc4)C(C)=C1C3(C)C)[C@]1(OC(C)=O)CO[C@@H]1C[C@@H]2O + CN(C)c1ccc(Nc2c3ccc(NC(=O)CCN4CCCC4)cc3nc3cc(NC(=O)CCN4CCCC4)ccc23)cc1", "viability, T/C", "%", 18.5),
    ("CC1COCCN1c1cc(C2(S(C)(=N)=O)CC2)nc(-c2ccnc3[nH]ccc23)n1 (stereo not given) + Cc1cnc(CNC(=O)c2c(=O)c3ccc(N4CCCN(C)CC4)nc3n3c2sc2ccccc23)cn1", "viability, T/C", "%", 64.5),
    ("CC1COCCN1c1cc(C2(O)CC3CCC(C2)O3)c2cnn(-c3ccn[nH]3)c2n1 (stereo not given) + CN(C)c1ccc(Nc2c3ccc(NC(=O)CCN4CCCC4)cc3nc3cc(NC(=O)CCN4CCCC4)ccc23)cc1", "viability, T/C", "%", 29.6),
    ("CC1COCCN1c1cc(C2(S(C)(=N)=O)CC2)nc(-c2ccnc3[nH]ccc23)n1 (stereo not given) + Cc1[nH]c2ccc(F)cc2c1-c1nc2c3cccnc3c3ncccc3c2[nH]1", "viability, T/C", "%", 107),
    ("COc1cc(C2c3cc4c(cc3C(OC3OC5COC(C)OC5C(O)C3O)C3COC(=O)C23)OCO4)cc(OC)c1O (stereo not given) + CN(C)c1ccc(Nc2c3ccc(NC(=O)CCN4CCCC4)cc3nc3cc(NC(=O)CCN4CCCC4)ccc23)cc1", "viability, T/C", "%", 76.8),
    ("C=CCn1c(=O)c2cnc(Nc3ccc(N4CCN(C)CC4)cc3)nc2n1-c1cccc(C(C)(C)O)n1 + Cc1[nH]c2ccc(F)cc2c1-c1nc2c3cccnc3c3ncccc3c2[nH]1", "viability, T/C", "%", 45.5),
    ("COc1ccc([C@@H](O)c2cc(-c3ncnc4cc(N5CCOCC5)ccc34)c(F)cc2Cl)nn1 + Cc1cnc(CNC(=O)c2c(=O)c3ccc(N4CCCN(C)CC4)nc3n3c2sc2ccccc23)cn1", "viability, T/C", "%", 46.5),
    ("CC(C)(O)C1CCC(Nc2ccc3ncc(-c4cccc(C(F)(F)F)c4)n3n2)CC1 (stereo not given) + Cc1cnc(CNC(=O)c2c(=O)c3ccc(N4CCCN(C)CC4)nc3n3c2sc2ccccc23)cn1", "viability, T/C", "%", 72.7),
]

IN: So what viability, T/C did Nc1ccn(C2OC(CO)C(O)C2(F)F)c(=O)n1 (stereo not given) + Cc1cnc(CNC(=O)c2c(=O)c3ccc(N4CCCN(C)CC4)nc3n3c2sc2ccccc23)cn1 get with K24384-001-R-PDC complex spheroids, viability?
OUT: 56.3

* * *

Tested on: K24384-001-R-PDC complex spheroids, viability
Experiment: Anticancer human tumor K24384-001-R-PDC cell line growth inhibition [GQUAD];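 further: spheroids exposed to compounds for seven days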
Settings: curve of first compound; second compound 0.1 µM
pIC50: −log10 of the molar value.
Here the recorded pIC50 is given for each entry.

IN: # get_value(readout='pIC50', item= Cc1cccc(N(C)C(=O)C2C(O)CCN2c2nc(C)cc(C(F)(F)F)c2C#N)c1 (stereo not given) + Cc1[nH]c2ccc(F)cc2c1-c1nc2c3cccnc3c3ncccc3c2[nH]1 )
OUT: < 5.00

IN: # get_value(readout='pIC50', item= CC(=O)O[C@H]1C(=O)[C@@]2(C)[C@H]([C@H](OC(=O)c3ccccc3)[C@]3(O)C[C@H](OC(=O)[C@H](O)[C@@H](NC(=O)c4ccccc4)c4ccccc4)C(C)=C1C3(C)C)[C@]1(OC(C)=O)CO[C@@H]1C[C@@H]2O + Cc1[nH]c2ccc(F)cc2c1-c1nc2c3cccnc3c3ncccc3c2[nH]1 )
OUT: > 7.50

IN: # get_value(readout='pIC50', item= COc1ncnc(C2CC2)c1-c1ncc2cnn(Cc3ccc(-c4nc(C(F)(F)F)cn4C(C)C)cc3)c2n1 + Cc1cnc(CNC(=O)c2c(=O)c3ccc(N4CCCN(C)CC4)nc3n3c2sc2ccccc23)cn1 )
OUT: < 5.00

IN: # get_value(readout='pIC50', item= Cn1ncnc1[C@H]1c2n[nH]c(=O)c3cc(F)cc(c23)N[C@@H]1c1ccc(F)cc1 + CN(C)c1ccc(Nc2c3ccc(NC(=O)CCN4CCCC4)cc3nc3cc(NC(=O)CCN4CCCC4)ccc23)cc1 )
OUT: < 6.50

IN: # get_value(readout='pIC50', item= O=C(c1cc(Cc2n[nH]c(=O)c3ccccc23)ccc1F)N1CCN(C(=O)C2CC2)CC1 + Cc1cnc(CNC(=O)c2c(=O)c3ccc(N4CCCN(C)CC4)nc3n3c2sc2ccccc23)cn1 )
OUT: < 5.00

* * *

Test system: K24384-001-R-PDC complex spheroids, viability
Assay: Anticancer human tumor K24384-001-R-PDC cell line growth inhibition [GQUAD];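 further: spheroids exposed to compounds for seven days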
Settings: second compound 0.316 µM; first compound 0.00999 µM; stronger effect = lower value
RECORDED METRIC: viability, T/C

# COMPOUND, viability, T/C
rows = [
    ("Cc1[nH]c2ccccc2c1CCNCc1ccc(/C=C/C(=O)NO)cc1 + Cc1cnc(CNC(=O)c2c(=O)c3ccc(N4CCCN(C)CC4)nc3n3c2sc2ccccc23)cn1", "63.1%"),
    ("CC[C@@]1(O)C(=O)OCc2c1cc1n(c2=O)Cc2cc3c(CN(C)C)c(O)ccc3nc2-1 + Cc1cnc(CNC(=O)c2c(=O)c3ccc(N4CCCN(C)CC4)nc3n3c2sc2ccccc23)cn1", "47.8%"),
    ("Cn1ncnc1[C@H]1c2n[nH]c(=O)c3cc(F)cc(c23)N[C@@H]1c1ccc(F)cc1 + Cc1cnc(CNC(=O)c2c(=O)c3ccc(N4CCCN(C)CC4)nc3n3c2sc2ccccc23)cn1", "50.6%"),
]

Kindly review the next compound as well.
IN: So what viability, T/C did CC[C@@]1(O)C(=O)OCc2c1cc1n(c2=O)Cc2cc3c(CN(C)C)c(O)ccc3nc2-1 + CN(C)c1ccc(Nc2c3ccc(NC(=O)CCN4CCCC4)cc3nc3cc(NC(=O)CCN4CCCC4)ccc23)cc1 get with K24384-001-R-PDC complex spheroids, viability?
OUT: 89.1%

* * *

Tested on: K24384-001-R-PDC complex spheroids, viability
Test: Anticancer human tumor K24384-001-R-PDC cell line growth inhibition [GQUAD]; active = viability on the fitted dose curve at most 10% of control; inactive = the rest;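 further: spheroids exposed to compounds for seven days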
Conditions: second compound 1 µM; first compound 3.16 µM
Pick from true (1) for active, false (0) for inactive when you respond.

Answered examples (5):
# COMPOUND, MEASURED TARGET, CATEGORY LABEL
data = [
    ("CCCS(=O)(=O)Nc1ccc(F)c(C(=O)c2c[nH]c3ncc(-c4ccc(Cl)cc4)cc23)c1F + CN(C)c1ccc(Nc2c3ccc(NC(=O)CCN4CCCC4)cc3nc3cc(NC(=O)CCN4CCCC4)ccc23)cc1", "K24384-001-R-PDC complex spheroids, viability", "false (0)"),
    ("Nc1ccn(C2OC(CO)C(O)C2(F)F)c(=O)n1 (centres undefined) + CN(C)c1ccc(Nc2c3ccc(NC(=O)CCN4CCCC4)cc3nc3cc(NC(=O)CCN4CCCC4)ccc23)cc1", "K24384-001-R-PDC complex spheroids, viability", "false (0)"),
    ("O=C(NO)c1cnc(N2CCN(S(=O)(=O)c3ccc4ccccc4c3)CC2)nc1 + CN(C)c1ccc(Nc2c3ccc(NC(=O)CCN4CCCC4)cc3nc3cc(NC(=O)CCN4CCCC4)ccc23)cc1", "K24384-001-R-PDC complex spheroids, viability", "true (1)"),
    ("Cc1cccc(N(C)C(=O)C2C(O)CCN2c2nc(C)cc(C(F)(F)F)c2C#N)c1 (centres undefined) + Cc1[nH]c2ccc(F)cc2c1-c1nc2c3cccnc3c3ncccc3c2[nH]1", "K24384-001-R-PDC complex spheroids, viability", "false (0)"),
    ("O=c1[nH]cc(F)c(=O)[nH]1 + Cc1cnc(CNC(=O)c2c(=O)c3ccc(N4CCCN(C)CC4)nc3n3c2sc2ccccc23)cn1", "K24384-001-R-PDC complex spheroids, viability", "false (0)"),
]

IN: Answer briefly: the call reported for Cc1cccc(N(C)C(=O)C2C(O)CCN2c2nc(C)cc(C(F)(F)F)c2C#N)c1 (centres undefined) + Cc1cnc(CNC(=O)c2c(=O)c3ccc(N4CCCN(C)CC4)nc3n3c2sc2ccccc23)cn1 in this assay.
OUT: false (0)

IN: Answer briefly: the call reported for Nc1ccn(C2OC(CO)C(O)C2(F)F)c(=O)n1 (centres undefined) + Cc1[nH]c2ccc(F)cc2c1-c1nc2c3cccnc3c3ncccc3c2[nH]1 in this assay.
OUT: false (0)

IN: Answer briefly: the call reported for CC(C)(O)C1CCC(Nc2ccc3ncc(-c4cccc(C(F)(F)F)c4)n3n2)CC1 (centres undefined) + Cc1cnc(CNC(=O)c2c(=O)c3ccc(N4CCCN(C)CC4)nc3n3c2sc2ccccc23)cn1 in this assay.
OUT: false (0)

IN: Answer briefly: the call reported for COc1ncnc(C2CC2)c1-c1ncc2cnn(Cc3ccc(-c4nc(C(F)(F)F)cn4C(C)C)cc3)c2n1 + Cc1cnc(CNC(=O)c2c(=O)c3ccc(N4CCCN(C)CC4)nc3n3c2sc2ccccc23)cn1 in this assay.
OUT: false (0)

IN: Answer briefly: the call reported for O=C(c1cc(Cc2n[nH]c(=O)c3ccccc23)ccc1F)N1CCN(C(=O)C2CC2)CC1 + Cc1cnc(CNC(=O)c2c(=O)c3ccc(N4CCCN(C)CC4)nc3n3c2sc2ccccc23)cn1 in this assay.
OUT: false (0)

IN: Answer briefly: the call reported for C=CC(=O)N1CCN(c2nc(=O)n(-c3c(C)ccnc3C(C)C)c3nc(-c4c(O)cccc4F)c(F)cc23)C(C)C1 (centres undefined) + Cc1[nH]c2ccc(F)cc2c1-c1nc2c3cccnc3c3ncccc3c2[nH]1 in this assay.
OUT: false (0)

IN: Answer briefly: the call reported for CC(C)n1c(=O)n(C)c2cnc3cc(F)c(-c4ccc(OCCCN5CCCCC5)nc4)cc3c21 + Cc1cnc(CNC(=O)c2c(=O)c3ccc(N4CCCN(C)CC4)nc3n3c2sc2ccccc23)cn1 in this assay.
OUT: false (0)

IN: Answer briefly: the call reported for COc1cc(C2c3cc4c(cc3C(OC3OC5COC(C)OC5C(O)C3O)C3COC(=O)C23)OCO4)cc(OC)c1O (centres undefined) + Cc1[nH]c2ccc(F)cc2c1-c1nc2c3cccnc3c3ncccc3c2[nH]1 in this assay.
OUT: false (0)

IN: Answer briefly: the call reported for COc1cccc2c1C(=O)c1c(O)c3c(c(O)c1C2=O)CC(O)(C(=O)CO)CC3OC1CC(N)C(O)C(C)O1 (centres undefined) + CN(C)c1ccc(Nc2c3ccc(NC(=O)CCN4CCCC4)cc3nc3cc(NC(=O)CCN4CCCC4)ccc23)cc1 in this assay.
OUT: true (1)
